# ASSAY_SYSTEM: T1, recombinant human OX40L (extracellular domain, R&D Systems) (human, UniProt P23510 51-183)
# T1 construct: also called hOX40L; rec. hOX40L
# T1 sequence: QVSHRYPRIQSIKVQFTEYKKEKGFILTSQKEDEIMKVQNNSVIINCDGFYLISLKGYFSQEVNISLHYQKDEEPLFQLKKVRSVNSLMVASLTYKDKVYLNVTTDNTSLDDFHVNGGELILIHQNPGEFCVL
# ASSAY_NAME: SPR, second injection after competitor OX40L01E10
Each record here notes measured Binding Level sample 2 (RU).
Use RU as the unit, but write only the number.

Query OX40L01B11 (VHH, monovalent Nanobody from E. coli; not shown: C-terminal c-myc and His6 tag) VHH: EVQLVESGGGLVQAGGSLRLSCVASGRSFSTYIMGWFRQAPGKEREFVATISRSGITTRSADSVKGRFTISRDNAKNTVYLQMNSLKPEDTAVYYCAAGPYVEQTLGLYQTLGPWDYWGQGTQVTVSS yields Binding Level sample 2 (RU) of 296

Query OX40L01E10 (VHH, monovalent Nanobody from E. coli; not shown: C-terminal c-myc and His6 tag) VHH: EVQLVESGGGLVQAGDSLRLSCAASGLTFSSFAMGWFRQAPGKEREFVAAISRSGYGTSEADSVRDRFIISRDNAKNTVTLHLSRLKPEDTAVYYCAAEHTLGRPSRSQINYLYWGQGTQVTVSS yields Binding Level sample 2 (RU) of 215

Taken from patent US20150218281A1.
